molecular target: T1, human PD-L1-His (human, UniProt Q9NZQ7 19-238, limits assumed); experiment: ELISA, human PD-L1-His coated, anti-human IgG-HRP, OD450
T1 construct: not shown: His tag
outcome measure: EC50

Req: I am curious: what EC50 value has been reported for Hu4B6_HdLb (antibody, human IgG1, V domains shown) VH: QVQLVQSGAEVKKPGASVKVSCKASGYVFTDYYMNWVRQAPGQSLEWMGDINPNNGGTSYNHKFKGRVTVTVDKSISTAYMELSRLRSDDTAVYYCVKWGDGPFAYWGQGTLVTVSS VL: DIQMTQSPSSLSASVGDRVTITCKASQNVGAAVAWYQQKPGKSPKLLIYSASNRYTGVPDRFSGSGSGTDFTLTISSLQPEDIATYYCQQYSNYPTFGQGTKLEIK ?
Resp: 1.47 nM

Req: I am curious: what EC50 value has been reported for Hu4B6_HaLa (antibody, human IgG1, V domains shown) VH: QVQLVQSGAEVKKPGASVKVSCKASGYTFTDYYMNWVRQAPGQGLEWMGDINPNNGGTSYNHKFKGRVTVTVDTSISTAYMELSRLRSDDTAVYYCARWGDGPFAYWGQGTLVTVSS VL: DIQMTQSPSSLSASVGDRVTITCKASQNVGAAVAWYQQKPGKAPKLLIYSASNRYTGVPSRFSGSGSGTDFTLTISSLQPEDIATYYCQQYSNYPTFGQGTKLEIK ?
Resp: 5.16 nM

Req: I am curious: what EC50 value has been reported for Hu4B6_HcLa (antibody, human IgG1, V domains shown) VH: QVQLVQSGAEVKKPGASVKVSCKASGYVFTDYYMNWVRQAPGQGLEWMGDINPNNGGTSYNHKFKGRVTVTVDKSISTAYMELSRLRSDDTAVYYCARWGDGPFAYWGQGTLVTVSS VL: DIQMTQSPSSLSASVGDRVTITCKASQNVGAAVAWYQQKPGKAPKLLIYSASNRYTGVPSRFSGSGSGTDFTLTISSLQPEDIATYYCQQYSNYPTFGQGTKLEIK ?
Resp: 5.74 nM
